What Papp A→B was measured for each of the following?
- EXPERIMENT NOTES: in vitro
- CONDITION CONTEXT: human, Caco-2
Enter your answer as a number in ×10⁻⁶ cm/s; do not include the unit.

Task item: Read the entry COc1cc(C2CCN(c3cc(N4CC[C@H]4C(=O)NCCc4ccc(C#N)cc4)nc(C(F)(F)F)n3)CC2)ccc1C(=O)O and write its reported Papp A→B.
Reply: 2.7

Task item: Read the entry N#Cc1ccc(CCNC(=O)[C@@H]2CCCN(c3cc(N4CCC(Oc5ccc(CC(=O)O)cc5)CC4)nc(C(F)(F)F)n3)C2)cc1 and write its reported Papp A→B.
Reply: 2.12

Task item: Read the entry N#Cc1ccc(CCNC(=O)[C@@H]2CCCN(c3cc(N4CCC(C(=O)O)CC4)nc(C(F)(F)F)n3)C2)cc1 and write its reported Papp A→B.
Reply: 1.36

Task item: Read the entry CC1(C(=O)O)CCN(c2cc(N3CCC[C@@H](C(=O)NCCc4ccc(C#N)cc4)C3)nc(C(F)(F)F)n2)CC1 and write its reported Papp A→B.
Reply: 1.02

* * *

- EXPERIMENT NOTES: AUC in mouse at 20 mg/kg, po
- Format: ADME, organism-based
- Design: dose 20 mg/kg, route oral
- CONDITION CONTEXT: plasma
What AUC was measured for each of the following?
Enter your answer as a number in µM·h; do not include the unit.

Task item: Read the entry CN1CCN(c2cc(N3CCC[C@@H](C(=O)NCCc4ccc(C#N)cc4)C3)nc(C(F)(F)F)n2)CC1 and write its reported AUC.
Reply: 2.54

Task item: Read the entry N#Cc1ccc(CCNC(=O)[C@@H]2CCN2c2cc(-c3ccc([C@H]4CC[C@H](C(=O)O)CC4)cc3)nc(C(F)(F)F)n2)cc1 and write its reported AUC.
Reply: 53.8

* * *

- EXPERIMENT NOTES: AUC in ob/ob mouse at 30 mg/kg, po qd measured on day 1
- Format: ADME, organism-based
- Set-up: dose 30 mg/kg, route oral
- CONDITION CONTEXT: plasma
MEASUREMENT TYPE: AUC (µM·h)
Enter your answer as a number in µM·h; do not include the unit.

Task item: Read the entry N#Cc1ccc(CCNC(=O)[C@@H]2CCN2c2cc(-c3ccc([C@H]4CC[C@H](C(=O)O)CC4)cc3)nc(C(F)(F)F)n2)cc1 and write its reported AUC.
Reply: 45.5

* * *

- EXPERIMENT NOTES: Cmax in mouse at 20 mg/kg, po
- Assay type: ADME, organism-based
- Design: dose 20 mg/kg, route oral
- CONDITION CONTEXT: in vivo
What Cmax was measured for each of the following?
Enter your answer as a number in µM; do not include the unit.

Task item: Read the entry N#Cc1ccc(CCNC(=O)[C@@H]2CCN2c2cc(-c3ccc([C@H]4CC[C@H](C(=O)O)CC4)cc3)nc(C(F)(F)F)n2)cc1 and write its reported Cmax.
Reply: 9.75

Task item: Read the entry CN1CCN(c2cc(N3CCC[C@@H](C(=O)NCCc4ccc(C#N)cc4)C3)nc(C(F)(F)F)n2)CC1 and write its reported Cmax.
Reply: 1.07

* * *

What Papp B→A was measured for each of the following?
- EXPERIMENT NOTES: in vitro
- CONDITION CONTEXT: human, Caco-2
Enter your answer as a number in ×10⁻⁶ cm/s; do not include the unit.

Task item: Read the entry N#Cc1ccc(CCNC(=O)[C@@H]2CCCN(c3cc(N4CCC(Oc5ccc(CC(=O)O)cc5)CC4)nc(C(F)(F)F)n3)C2)cc1 and write its reported Papp B→A.
Reply: 6.4

Task item: Read the entry N#Cc1ccc(CCNC(=O)[C@@H]2CCCN(c3cc(N4CCC(C(=O)O)CC4)nc(C(F)(F)F)n3)C2)cc1 and write its reported Papp B→A.
Reply: 13

Task item: Read the entry CC1(C(=O)O)CCN(c2cc(N3CCC[C@@H](C(=O)NCCc4ccc(C#N)cc4)C3)nc(C(F)(F)F)n2)CC1 and write its reported Papp B→A.
Reply: 13.5

Task item: Read the entry COc1cc(C2CCN(c3cc(N4CC[C@H]4C(=O)NCCc4ccc(C#N)cc4)nc(C(F)(F)F)n3)CC2)ccc1C(=O)O and write its reported Papp B→A.
Reply: 12.9

* * *

- EXPERIMENT NOTES: Cmax in ob/ob mouse at 30 mg/kg, po qd measured on day 37
- Assay type: ADME, organism-based
- Set-up: dose 30 mg/kg, route oral
- CONDITION CONTEXT: in vivo
MEASUREMENT TYPE: Cmax (µM)
Enter your answer as a number in µM; do not include the unit.

Task item: Read the entry N#Cc1ccc(CCNC(=O)[C@@H]2CCN2c2cc(-c3ccc([C@H]4CC[C@H](C(=O)O)CC4)cc3)nc(C(F)(F)F)n2)cc1 and write its reported Cmax.
Reply: 5.17

* * *

- EXPERIMENT NOTES: AUC in mouse plasma at 20 mg/kg up to 5 hrs
- Type: ADME, organism-based
- Parameters: time < 5 hr, dose 20 mg/kg
MEASUREMENT TYPE: log10 AUC at 5 h (log10 of the value in µM·h)
Scale: decimal log of AUC at 5 h, AUC at 5 h in µM·h.

Task item: Read the entry CC1(C(=O)O)CCN(c2cc(N3CCC[C@@H](C(=O)NCCc4ccc(C#N)cc4)C3)nc(C(F)(F)F)n2)CC1 and write its reported log10 AUC at 5 h.
Reply: 0.02

Task item: Read the entry COc1cc(C2CCN(c3cc(N4CC[C@H]4C(=O)NCCc4ccc(C#N)cc4)nc(C(F)(F)F)n3)CC2)ccc1C(=O)O and write its reported log10 AUC at 5 h.
Reply: 0.57

Task item: Read the entry N#Cc1ccc(CCNC(=O)[C@@H]2CCCN(c3cc(N4CCC(Oc5ccc(CC(=O)O)cc5)CC4)nc(C(F)(F)F)n3)C2)cc1 and write its reported log10 AUC at 5 h.
Reply: 0.70

Task item: Read the entry N#Cc1ccc(CCNC(=O)[C@@H]2CCN2c2cc(-c3ccc(-c4ccc(C(=O)O)cc4)cc3)nc(C(F)(F)F)n2)cc1 and write its reported log10 AUC at 5 h.
Reply: 1.14

Task item: Read the entry N#Cc1ccc(CCNC(=O)[C@@H]2CCCN(c3cc(N4CCC(C(=O)O)CC4)nc(C(F)(F)F)n3)C2)cc1 and write its reported log10 AUC at 5 h.
Reply: -0.97

Task item: Read the entry N#Cc1ccc(CCNC(=O)[C@@H]2CCN2c2cc(N3CCC(Oc4ccc(C(=O)O)cc4)CC3)nc(C(F)(F)F)n2)cc1 and write its reported log10 AUC at 5 h.
Reply: 0.88

Task item: Read the entry N#Cc1ccc(CCNC(=O)[C@@H]2CCN2c2cc(-c3ccc([C@H]4CC[C@H](C(=O)O)CC4)cc3)nc(C(F)(F)F)n2)cc1 and write its reported log10 AUC at 5 h.
Reply: 1.06

Task item: Read the entry N#Cc1ccc(CCNC(=O)[C@@H]2CCN2c2cc(N3CCC(Oc4ccc(CC(=O)O)cc4)CC3)nc(C(F)(F)F)n2)cc1 and write its reported log10 AUC at 5 h.
Reply: 1.15

* * *

- EXPERIMENT NOTES: Oral bioavailability in mouse at 20 mg/kg
- Format: ADME, organism-based
- CONDITION CONTEXT: in vivo
What bioavailability was measured for each of the following?

Task item: Read the entry CN1CCN(c2cc(N3CCC[C@@H](C(=O)NCCc4ccc(C#N)cc4)C3)nc(C(F)(F)F)n2)CC1 and write its reported bioavailability.
Reply: 24%

Task item: Read the entry N#Cc1ccc(CCNC(=O)[C@@H]2CCN2c2cc(-c3ccc([C@H]4CC[C@H](C(=O)O)CC4)cc3)nc(C(F)(F)F)n2)cc1 and write its reported bioavailability.
Reply: 96.5%
